B1: LRRC45 (parent)
chain: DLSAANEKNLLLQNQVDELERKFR

# Variants of: B1
# Assay Info: protein stability index of a GFP-peptide fusion (GPS, HEK-293T) (PSI 1-6); higher = more stable;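 note: lentivirally expressed fusions sorted by FACS into six bins by GFP to DsRed ratio, PSI derived from sequencing read proportions per bin multiplied by bin number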
# Test Conditions: c terminus: a fixed tail appended
Endpoint: protein stability index
Respond numerically, and do not add a unit to the figure.

Observe how each entry below is paired with its result.
L10T 4.26
N9T 4.59

Which measured protein stability index value corresponds to S3W ?
3.18

Which measured protein stability index value corresponds to A4Y ?
3.91

Which measured protein stability index value corresponds to L19T ?
4.34

Which measured protein stability index value corresponds to S3E ?
4.86

Which measured protein stability index value corresponds to E18M ?
3.23

Which measured protein stability index value corresponds to A4L ?
3.06
